Data origin, for the record: paper PMC8704432

Test system: SiHa (HPV 16+) human cervical cell line
Experiment: Antiproliferative MTT assay, SiHa
Type: cell-based
Conditions: Homo sapiens, 30 μM, read-out: Growth Inhibition Values (%) ± SEM
Classification field: true (1) = inhibition at 30 µM at or over 90%; false (0) = inhibition at 30 µM under 90%.

### Prompt Would you say COC[C@@H]1C(=O)O[C@@H]2C[C@@H](C)C3=CC(=O)[C@](C)(O3)[C@H](O)[C@@H](OC(=O)CC(C)C)[C@@H]12 [Compound 2, Lobatolide A] shows inhibition at 30 µM at minimum 90%?
### Response false (0)

### Prompt Threshold query (inhibition at 30 µM >= 90%) on C=C1C(=O)OC2C=C(C)C(OC(C)=O)CC3OC3(C)CC(OC(=O)CC(C)C)C12 (stereo not shown) [Compound 6, Lobatolide C]
### Response false (0)

### Prompt // inclusive: inhibition at 30 µM at least 90%? input: C=C1C(=O)O[C@@H]2/C=C(/C)C3=CC(=O)[C@](C)(O3)[C@H](OC(=O)CC(C)C)[C@@H](O)[C@@H]12 [Compound 3]
### Response false (0)

### Prompt Is the recorded value of inhibition at 30 µM equal to or greater than 90% for this compound? C=C1C(=O)O[C@@H]2/C=C(/C)C3=CC(=O)[C@](C)(O3)[C@H](OC(C)=O)[C@@H](OC(=O)CC(C)C)[C@@H]12 [Compound 4, Lobatin C]
### Response true (1)

### Prompt Would you say C=C1C(=O)O[C@@H]2[C@@H](CC3=C4[C@@H](C[C@@H](C)/C=C\C(=O)[C@](C)(O)[C@H](OC(C)=O)[C@H]4OC(=O)CC(C)C)OC3=O)[C@@H](C)C3=CC(=O)[C@](C)(O3)[C@H](O)[C@@H](OC(=O)CC(C)C)[C@@H]12 [Compound 7, Lobatolide D] shows inhibition at 30 µM at minimum 90%?
### Response true (1)

### Prompt Tell me whether inhibition at 30 µM is at least 90% here: C=C1C(=O)O[C@@H]2C[C@@H](C)/C=C\C(=O)[C@@](C)(O)[C@H](OC(C)=O)[C@@H](OC(=O)CC(C)C)[C@@H]12 [Neu B, neurolenin B, reference compound]
### Response true (1)

### Prompt For this compound, is measured inhibition at 30 µM 90% or higher? C=C1CC[C@@H](O)[C@]2(C)CC[C@@H](C(C)C)[C@H](O)[C@@H]12 [Compound 9, Volenol]
### Response false (0)

### Prompt Can CC(C)[C@@H]1CC[C@@]2(C)C(=O)CCC(CO)=C[C@@H]12 [Compound 10, (+)-aphanamol I] be said to have inhibition at 30 µM at or above 90%?
### Response false (0)

### Prompt Can COC[C@H]1C(=O)O[C@@H]2C[C@@H](C)/C=C\C(=O)[C@](C)(O)[C@H](OC(C)=O)[C@@H](OC(=O)CC(C)C)[C@H]21 [Compound 5, Lobatolide B] be said to have inhibition at 30 µM at or above 90%?
### Response false (0)

----------
Test system: MRC-5 (human fibroblast)
Experiment: Antiproliferative MTT assay, MRC-5
Assay type: cell-based
Conditions: MRC-5, MTT; read-out: Calculated IC50 Values (μM) [95% CI]
Answer each item with its documented IC50.
Don't forget the unit after the value.

### Prompt Please report the recorded IC50 for C=C1C(=O)OC2C=C(C)C(OC(C)=O)CC3OC3(C)CC(OC(=O)CC(C)C)C12 (centres unmarked) [Compound 6, Lobatolide C] .
### Response 11.9 µM

### Prompt Any idea what its IC50 is? The molecule is N.N.[Cl][Pt][Cl] [Cispl., cisplatin, reference compound]
### Response 5.77 µM

----------
Tested on: MRC-5 (human fibroblast)
Experiment: Antiproliferative MTT assay, MRC-5
Type: cell-based
Settings: Homo sapiens, MRC5, MRC-5, MTT; read-out: Calculated IC50 Values (μM) [95% CI]
TEST READOUT: IC50 (µM)
Dear colleague, please return just the value in µM, with no unit written.

### Prompt Value lookup for IC50; key = C=C1C(=O)O[C@@H]2C[C@@H](C)/C=C\C(=O)[C@@](C)(O)[C@H](OC(C)=O)[C@@H](OC(=O)CC(C)C)[C@@H]12 [Neu B, neurolenin B, reference compound]
### Response 5.18

### Prompt Bench note: what IC50 did C=C1C(=O)O[C@@H]2/C=C(/C)C3=CC(=O)[C@](C)(O3)[C@H](OC(=O)CC(C)C)[C@@H](O)[C@@H]12 show?
### Response 6.67

----------
Tested on: HeLa (HPV 18+) human cervical cell line
Assay: Antiproliferative MTT assay, HeLa
Type: cell-based
Conditions: Homo sapiens, 30 μM, read-out: Growth Inhibition Values (%) ± SEM
Give measured inhibition at 30 µM for each item. Keep answers brief.
The reply should contain only the number, in %.

### Prompt # lookup: inhibition at 30 µM of COC[C@H]1C(=O)O[C@@H]2C[C@@H](C)/C=C\C(=O)[C@](C)(O)[C@H](OC(C)=O)[C@@H](OC(=O)CC(C)C)[C@H]21 [Compound 5, Lobatolide B]
### Response 63.9

### Prompt Find the recorded inhibition at 30 µM belonging to C=C1C(=O)O[C@@H]2C[C@@H](C)C3=CC(=O)[C@](C)(O3)[C@H](OC(=O)CC(C)C)[C@@H](O)[C@@H]12 and report it.
### Response 81.8

### Prompt Data request, read-out inhibition at 30 µM, for C=C1C(=O)O[C@@H]2C[C@@H](C)/C=C\C(=O)[C@@](C)(O)[C@H](OC(C)=O)[C@@H](OC(=O)CC(C)C)[C@@H]12 [Neu B, neurolenin B, reference compound]
### Response 94.8

### Prompt Given C=C1C(=O)O[C@@H]2/C=C(/C)C3=CC(=O)[C@](C)(O3)[C@H](OC(C)=O)[C@@H](OC(=O)CC(C)C)[C@@H]12 , state its recorded inhibition at 30 µM.
### Response 90.1

### Prompt For the molecule C=C1C(=O)O[C@@H]2/C=C(/C)C3=CC(=O)[C@](C)(O3)[C@H](OC(=O)CC(C)C)[C@@H](O)[C@@H]12 , what inhibition at 30 µM is on record?
### Response 96.6

### Prompt Need inhibition at 30 µM, item C=C1C(=O)O[C@@H]2[C@@H](CC3=C4[C@@H](C[C@@H](C)/C=C\C(=O)[C@](C)(O)[C@H](OC(C)=O)[C@H]4OC(=O)CC(C)C)OC3=O)[C@@H](C)C3=CC(=O)[C@](C)(O3)[C@H](O)[C@@H](OC(=O)CC(C)C)[C@@H]12 [Compound 7, Lobatolide D]
### Response 96.4

### Prompt Quick one: inhibition at 30 µM of C=C1CC[C@@H](O)[C@]2(C)CC[C@@H](C(C)C)[C@H](O)[C@@H]12 ?
### Response 37.3

### Prompt Look up inhibition at 30 µM for this molecule: CC(C)[C@@H]1CC[C@@]2(C)C(=O)CCC(CO)=C[C@@H]12 [Compound 10, (+)-aphanamol I]
### Response 36.5

### Prompt Return reported inhibition at 30 µM; argument: C=C1C(=O)OC2C=C(C)C(OC(C)=O)CC3OC3(C)CC(OC(=O)CC(C)C)C12 (stereo not shown) [Compound 6, Lobatolide C]
### Response 91.9

### Prompt # get_value(readout='inhibition at 30 µM', item= COC[C@@H]1C(=O)O[C@@H]2C[C@@H](C)C3=CC(=O)[C@](C)(O3)[C@H](O)[C@@H](OC(=O)CC(C)C)[C@@H]12 [Compound 2, Lobatolide A] )
### Response 21.6
